Values compiled from patent US20200102347A1.

# System: T1, NativeRPtag(large)_with_Tags_and_Cys (Thermoanaerobacter tengcongensis)
# T1 construct: Unlabeled in anisotropy assays; coupled through the engineered N-terminal Cys to SulfoLink agarose or maleimide plates in column, pull-down and ELISA assays
# T1 chain: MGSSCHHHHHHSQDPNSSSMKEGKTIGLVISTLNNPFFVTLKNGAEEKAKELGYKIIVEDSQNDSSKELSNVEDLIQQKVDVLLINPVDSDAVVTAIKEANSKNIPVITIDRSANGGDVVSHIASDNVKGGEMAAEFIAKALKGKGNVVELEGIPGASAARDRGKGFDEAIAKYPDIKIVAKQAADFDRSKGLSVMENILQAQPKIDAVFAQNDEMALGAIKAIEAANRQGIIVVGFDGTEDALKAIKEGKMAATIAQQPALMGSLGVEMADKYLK
# Test: fluorescence anisotropy; No Additive
No end group written: not given here. *: point of attachment. RhodamineB = CCN(CC)c1ccc2c(-c3ccccc3C(=O)*)c3ccc(=[N+](CC)CC)cc-3oc2c1
Observable: Kd (nM)
One number for each entry, in nM.

Return reported Kd. Input binder: RhodamineB-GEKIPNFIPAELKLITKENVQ (Synthetic peptide) [native RPtag(small)]
0.21
